Hey, just so you know, these numbers are from PubChem BioAssay AID1159580.

# EXPERIMENTAL_DETAILS: chemical genetic growth profiling, strain panel (AID 1159580);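 also: tested at 20 µM; growth read once vehicle control cultures reached saturation at 30 °C; 1 = growth at the plate median or of vehicle wells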
# CONDITION: S. cerevisiae deletion strains, growth OD, locus YDL214C, strain PRR2, stronger effect = lower value
Among all 5,500 compounds or so, about 2,000 (36%) were called active. Roughly 18% stayed inconclusive and do not appear here. The list shows a part of the results.
Please map values of normalized growth to classes as shown: bottom bin = under 0.8, middle bin = from 0.8 up to 0.9, top bin = 0.9 and over

COMPOUND	ASSIGNED_LABEL
Cc1nc(C(F)(F)F)c(C(=O)O/N=C(/N)c2ccc(Cl)cc2)s1	top bin
COc1ccccc1NC(=O)Nc1nn(C)c2cccc(OC)c12	middle bin
CCOC(=O)c1c(N=Cc2cc(Br)c(Br)cc2O)sc2c1CCCC2	bottom bin
COc1cc(C(=O)Oc2c(Cl)cc(Cl)cc2C=Nc2cccc(C(F)(F)F)c2)cc(OC)c1OC	bottom bin

Class label required: O=C(NCc1ccco1)c1csc(C2COc3ccccc3O2)n1 (stereo not given)
middle bin

What do we get for COc1cc(N=Cc2cc(Cl)cc(Cl)c2OC(=O)c2cc(OC)c(OC)c(OC)c2)c(OC)cc1Cl ?
bottom bin

What do we get for CN(C)/C=C/C(=O)c1ccc(C#Cc2ccccc2)cc1 ?
top bin

----------
# EXPERIMENTAL_DETAILS: chemical genetic growth profiling, strain panel (AID 1159580)
# CONDITION: S. cerevisiae deletion strains, growth OD, locus YOR061W, strain CKA2, stronger effect = lower value
Out of some 5,500 compounds screened, about 2,000 (36%) were called active. Inconclusive results (about 18%) are left out. The list shows a part of the results.
Entries and their measured normalized growth follow.
// keep it numeric: no unit symbol after the value

Consider the following illustrative entries.
MOLECULE	normalized growth
O=c1ccn([C@@H]2O[C@H](COP(=O)(O)OP(=O)(O)OP(=O)(O)O)[C@@H](O)[C@H]2O)c(=O)[nH]1	1.01
Cc1cccc(CN2CCN(C(c3ccccc3)c3ccc(Cl)cc3)CC2)c1 (stereo unspecified)	0.916
CO[C@@H]1C[C@@H](C[C@H]2CC[C@H](C)[C@H]([C@@H](C)C(=O)O)O2)O[C@]2(O[C@](C)([C@H]3CC[C@@](C)(C4O[C@@H](C5O[C@@](O)(CO)[C@H](C)C[C@@H]5C)C[C@@H]4C)O3)C[C@H]2C)[C@@H]1C (stereo partly specified)	1.02

Lab note: next molecule to report on.
Given the entry O=C(CCSc1cccs1)Nc1cccc(C(F)(F)F)c1 , report its measured normalized growth.
0.927

----------
# EXPERIMENTAL_DETAILS: chemical genetic growth profiling, strain panel (AID 1159580)
# CONDITION: S. cerevisiae deletion strains, growth OD, locus YNL271C, strain bni1
The campaign covered roughly 5,500 compounds. About 2,000 (36%) were called active. Another 18% or so got no clear call; they are omitted. No stated cut-off is given here; in the data, active means normalized growth mostly below about 0.91 (no sharp cut-off); inconclusive means no clear call, values can overlap the other calls; inactive means mostly above about 0.92. This is one part of the list.
Permitted responses: active, inactive

MOLECULE	ASSIGNED_LABEL
COc1cc(C)c2c(c1C=O)Oc1c(c(C)c(O)c3c1C(O)OC3=O)OC2=O (centres undefined)	inactive
COc1cc(/C=C/C(=O)O)cc(OC)c1OC	inactive
CCN(CC)CCOC(=O)C(Cc1cccc2ccccc12)CC1CCCO1 (centres undefined)	inactive

Answer briefly: the call reported for CN(Cc1cnc2nc(N)nc(N)c2n1)c1ccc(C(=O)NC(CCC(=O)O)C(=O)O)cc1 (centres undefined) in this assay.
active

What do we get for Oc1ccc(/C=C/c2cc(O)cc(O)c2)cc1 ?
inactive

What do we get for CCOC(=O)CCCCCCCCCCCCC1C=CCC1 (centres undefined) ?
active

What do we get for CCn1cc(C(=O)O)c(=O)c2cnc(N3CCCC3)nc21 ?
inactive

What do we get for O=C(O)P(=O)(O)O ?
inactive

What do we get for CC12CCC(CC1)C(C)(C)O2 ?
inactive

----------
# EXPERIMENTAL_DETAILS: chemical genetic growth profiling, strain panel (AID 1159580);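 also: tested at 20 µM; growth read once vehicle control cultures reached saturation at 30 °C; 1 = growth at the plate median or of vehicle wells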
# CONDITION: S. cerevisiae deletion strains, growth OD, locus YKL160W, strain elf1, stronger effect = lower value
Out of some 5,500 compounds screened, about 2,000 (36%) were called active. Roughly 18% stayed inconclusive and do not appear here. This is one part of the list.
RESULT_TYPE: normalized growth

Consider the following illustrative entries.
COMPOUND	normalized growth
CC(=O)O[C@H]1CC[C@@]2(C)C(=CCC3C2CC[C@]2(C)C(=O)CCC32)C1 (stereo partly specified)	0.906 (inactive)
COc1ccc(/C=C/C(=O)c2cc(O)ccc2O)cc1	0.136 (active)
NC(=O)c1ccc(N)nc1	0.975 (inactive)

Given the entry CC12CCC3C(CC=C4CC(O)CCC43C)C1CCC2=O (stereo unspecified) , report its measured normalized growth.
0.858 (active)

What do we get for CCOP(=S)(OCC)Oc1ccc2c(C)c(Cl)c(=O)oc2c1 ?
1 (inactive)

What do we get for CC1=CC(=O)CC(C)(C)C1(O)/C=C/C(C)=C\C(=O)O (stereo unspecified) ?
1.03 (inactive)

----------
# EXPERIMENTAL_DETAILS: chemical genetic growth profiling, strain panel (AID 1159580);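 also: tested at 20 µM; growth read once vehicle control cultures reached saturation at 30 °C; 1 = growth at the plate median or of vehicle wells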
# CONDITION: S. cerevisiae deletion strains, growth OD, locus YNL298W, strain CLA4, stronger effect = lower value
Among all 5,500 compounds or so, about 2,000 (36%) were called active. Inconclusive results (about 18%) are left out. The list shows a part of the results.
Entries and their measured normalized growth follow.
// keep it numeric: no unit symbol after the value

Given the entry CC(=O)Oc1cc(C)c2c(c1C(OC(C)=O)OC(C)=O)Oc1c(c(C)c(OC(C)=O)c3c1C(OC(C)=O)OC3=O)OC2=O (stereo unspecified) , report its measured normalized growth.
0.967

What do we get for CCN(CC)CCOC(=O)C(Cc1cccc2ccccc12)CC1CCCO1 (stereo unspecified) ?
0.998

What do we get for CC(Cc1ccc(O)c(O)c1)(NN)C(=O)O (stereo unspecified) ?
1.02

What do we get for COC(=O)[C@H]1[C@H]2C[C@@H]3c4[nH]c5cc(OC)ccc5c4CCN3C[C@H]2C[C@@H](OC(=O)c2cc(OC)c(OC)c(OC)c2)[C@@H]1OC ?
1.02

What do we get for O=C(O)P(=O)(O)O ?
0.976

What do we get for C[C@](N)(Cc1ccc(O)c(O)c1)C(=O)O ?
0.999

----------
# EXPERIMENTAL_DETAILS: chemical genetic growth profiling, strain panel (AID 1159580);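 also: tested at 20 µM; growth read once vehicle control cultures reached saturation at 30 °C; 1 = growth at the plate median or of vehicle wells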
# CONDITION: S. cerevisiae deletion strains, growth OD, locus YLR262C, strain YPT6 (second series), stronger effect = lower value
Hit rate of the full screen: of about 5,500 compounds, about 2,000 (36%) were called active. Inconclusive results (about 18%) are left out. This is one part of the list.
Strictly below 0.9 in normalized growth: 1. Otherwise: -1.

Please review the entries below; each comes with its answer.
COMPOUND	ASSIGNED_LABEL
COc1cc(/C=C/C(=O)O)ccc1O	-1
CCOC(=O)c1ccc(N)cc1	-1

Below 0.9 on normalized growth? Entry CN1CCc2cccc3c2C1Cc1ccc(O)c(O)c1-3 (configuration not stated)
1

What do we get for CC1(C)CC2C1CCC1(C)OC1CCC2(C)O (configuration not stated) ?
-1

What do we get for COc1ccc2c(c1O)-c1c(OC)c(OC)cc3c1[C@H](C2)N(C)CC3 ?
-1

What do we get for O=C1CN(/N=C\c2ccc([N+](=O)[O-])o2)C(=O)N1 ?
-1

What do we get for COc1ccc(/C=C/C(=O)c2ccc(O)cc2O)cc1 ?
1

What do we get for CCn1cc(C(=O)O)c(=O)c2ccc(C)nc21 ?
1

What do we get for CC1(C)O[C@@H]2CC3C4CCC5=CC(=O)C=C[C@]5(C)C4[C@@H](O)C[C@]3(C)[C@]2(C(=O)CO)O1 (some centres not stated) ?
-1

What do we get for CN(Cc1cc(Br)cc(Br)c1N)C1CCCCC1 ?
-1

What do we get for c1ccc2[nH]c(-c3cscn3)nc2c1 ?
-1

What do we get for O=C(NC(=O)c1c(F)cccc1F)Nc1cc(Cl)c(OC(F)(F)C(F)C(F)(F)F)cc1Cl (configuration not stated) ?
-1

What do we get for N[C@@H](CCC(=O)N[C@@H](CCSC(CC(=O)O)C(=O)O)C(=O)NCC(=O)O)C(=O)O (some centres not stated) ?
-1

What do we get for COP(=S)(OC)Oc1ccc(SC)c(C)c1 ?
-1

What do we get for C[C@](N)(Cc1ccc(O)cc1)C(=O)O ?
-1

What do we get for Nc1c(Br)cc(Br)cc1CNC1CCC(O)CC1 (configuration not stated) ?
-1

What do we get for CC1=CC(=O)CC(C)(C)C1(O)/C=C/C(C)=C\C(=O)O (configuration not stated) ?
-1

What do we get for NC(=O)N/N=C\c1ccc([N+](=O)[O-])o1 ?
-1

What do we get for Nc1ccc(S(=O)(=O)Nc2nccs2)cc1 ?
-1

What do we get for CCOC(=O)CCCCCCCCCCCCC1C=CCC1 (configuration not stated) ?
-1

What do we get for COc1cc(C)c2c(c1C=O)Oc1c(c(C)c(O)c3c1C(O)OC3=O)OC2=O (configuration not stated) ?
-1

What do we get for COc1ccc(C=CC(=O)c2ccc(O)cc2O)cc1OC ?
1

What do we get for CC1(C)CC2C1CCC1(C)OC2(C)CCC1O (configuration not stated) ?
-1

What do we get for NCc1ccc(S(N)(=O)=O)cc1 ?
-1

What do we get for CN(C)CCCO[C@H]1[C@@H](C(O)CO)OC2OC(C)(C)O[C@@H]21 (some centres not stated) ?
-1

What do we get for Nc1nccs1 ?
-1

What do we get for CCn1cc(C(=O)O)c(=O)c2cnc(N3CCCC3)nc21 ?
1

What do we get for CC12CCC3C(CC=C4CC(O)CCC43C)C1CCC2=O (configuration not stated) ?
1

What do we get for c1ccc(-c2ccc(C(c3ccccc3)n3ccnc3)cc2)cc1 (configuration not stated) ?
1

What do we get for CC(=O)O[C@H]1CC[C@@]2(C)C(=CCC3C2CC[C@@]2(C)C3CC[C@@H]2C(C)CCCC(C)C)C1 (some centres not stated) ?
-1

What do we get for O=C(O)CCCCC1SCC2NC(=O)NC21 (configuration not stated) ?
-1
